System: NCI-H226 lung
Assay: NCI-60 one-dose screen, 48 h
Conditions: 10 µM unless noted
This is part of a sample that, as a whole, favours compounds with a hit. Of some 83,000 tested, about 20% had one in any assay. Activity calls are given as the source filed them. How the source made its calls: active means growth percent below 10; inactive means the rest.
Pick from Y = active, N = inactive when you respond.

# Compound, Answer Label
rows = [
    ("CCCCn1c(-c2cccc(OC)c2)nc2cc(OC)c(OC)cc2c1=O", "N"),
]

**Query** Hey, what did the test say about COc1cc(/C=C/C(=O)c2c(C)n([O-])c3cc(C)c(C)cc3[n+]2=O)cc(OC)c1OC ?
**Result** N

**Query** Hey, what did the test say about CCCCC(=O)Nc1nc2ccc(SCCC)cc2s1 ?
**Result** N

**Query** Hey, what did the test say about COc1ccccc1C(OC(C)=O)OC(C)=O ?
**Result** N

**Query** Hey, what did the test say about O=C(Nc1cccc(-n2ccc3c(NC(=O)c4ccccc4)ncnc32)c1)Nc1ccc(Cl)c(C(F)(F)F)c1 ?
**Result** N

**Query** Hey, what did the test say about CCC(C)Nc1ccc(N)cc1 (stereo not given) ?
**Result** N

**Query** Hey, what did the test say about COc1ccccc1N1CCN(CC(O)COc2c(Br)c(Br)c(Br)c3c2OC(C)(C)C3)CC1 (stereo not given) ?
**Result** N

**Query** Hey, what did the test say about COc1cc2nc(C(=O)N3CCCCC3)cc(Nc3ccccc3)c2cc1OC ?
**Result** N

**Query** Hey, what did the test say about COc1cc(C(=O)C[n+]2ccccc2)ccc1OC(C)=O ?
**Result** N

**Query** Hey, what did the test say about COc1ccc(C[C@H](N)C(=O)N[C@@H]2[C@@H](CO)OC(n3cnc4c(N(C)C)ncnc43)[C@@H]2O)cc1 (stereo not given in full) ?
**Result** Y

**Query** Hey, what did the test say about O=c1[nH]ccc2nc(N3CCC(O)CC3)nc(Nc3cccc(C(F)(F)F)c3)c12 ?
**Result** N

**Query** Hey, what did the test say about CC(=O)N1N=C(CCC(=O)c2nc3ccc([N+](=O)[O-])cc3[nH]2)OC1c1ccc(O)cc1 (stereo not given) ?
**Result** N

**Query** Hey, what did the test say about CCCCOc1nc2ccc(Cl)cc2cc1/C=C/C(=O)/C=C/c1ccc(OC)cc1 ?
**Result** N

**Query** Hey, what did the test say about Cc1nssc1=S ?
**Result** N

**Query** Hey, what did the test say about CCC1S/C(=N\N=C(/C)c2cccs2)N(c2ccccc2)C1=O (stereo not given) ?
**Result** N

====

Test system: SN12C renal
Test: NCI-60 one-dose screen, 48 h (100 = growth as untreated, 0 = no growth, -100 = all killed)
Settings: 10 µM unless noted
This is part of a sample that, as a whole, favours compounds with a hit. Of some 83,000 tested, about 20% had one in any assay.
Measure Name: growth (%)
One number for each entry, in %.

Example entries begin here.
# Compound, Target System, Endpoint Unit, Result Value
data = [
    ("Cc1nccc2c3ccc(OCc4cn(Cc5ccc(Br)cc5)nn4)cc3n(CCCc3ccccc3)c12", "SN12C renal", "%", 92.1),
    ("CC1OC(n2c3ccccc3c3c4c(c5c6ccccc6[nH]c5c32)C(=O)N(CCN[C@@H]2CCC[C@H]2N)C4=O)CC(O)C1O (some centres not stated)", "SN12C renal", "%", 13.7),
]

For each of the compounds below, note its growth.
1. C=C1C(=O)O[C@H]2[C@H]1CC/C(COC(=O)CCCC(=O)OC/C1=C/CC[C@@]3(C)O[C@H]3[C@H]3OC(=O)C(=C)[C@@H]3CC1)=C\CC[C@@]1(C)O[C@@H]21
2. N#Cc1c(N)nc(Cl)c(C#N)c1C(=O)c1ccccc1

**Result**
[15.1, 35.7]

====

Tested on: A549/ATCC NSCLC
Experiment: NCI-60 one-dose screen, 48 h (100 = growth as untreated, 0 = no growth, -100 = all killed)
Conditions: 10 µM unless noted
This is part of a sample that, as a whole, favours compounds with a hit. Of some 83,000 tested, about 20% had one in any assay.
Quick rule for you: growth under 80% gets fulfilled, anything else gets not fulfilled.

Reference set, count: 3
# Compound, Target System, Answer Label
measured = [
    ("COc1ccc(NC(=O)Nc2ccc(-c3ccc(OC)c(OC)c3)nc2C)cc1", "A549/ATCC NSCLC", "fulfilled"),
    ("CN(C)c1ncc(C#Cc2c(F)cccc2F)c2ccccc12", "A549/ATCC NSCLC", "not fulfilled"),
    ("Cc1ccn2cc(Cc3cc(=O)oc4c3ccc3ccccc34)c(=O)nc2c1", "A549/ATCC NSCLC", "not fulfilled"),
]

**Query** Is growth of CCOC(=O)c1cnc2c(OC)ccc(OC)c2c1Cl strictly below 80%?
**Result** not fulfilled

**Query** Is growth of Nc1nc(-c2cc3c(cc2Cl)NC(=O)/C3=C/c2ccc(Cl)cc2)cs1 strictly below 80%?
**Result** fulfilled

**Query** Is growth of COc1ccc(-c2c(NC(=O)Nc3ccc(Cl)c(C(F)(F)F)c3)cnn2-c2ccc(S(N)(=O)=O)cc2)cc1 strictly below 80%?
**Result** fulfilled

**Query** Is growth of CC(C)(C)NC(C1=CC(C)(C)c2ccccc2C1=O)c1ccccc1 (centres undefined) strictly below 80%?
**Result** fulfilled

**Query** Is growth of COc1ccc(/C(=C/c2cc(OC)c(OC)c(OC)c2)[N+](=O)[O-])cc1 strictly below 80%?
**Result** fulfilled

====

System: MOLT-4 leukemia
Assay: NCI-60 one-dose screen, 48 h (100 = growth as untreated, 0 = no growth, -100 = all killed)
Conditions: 10 µM unless noted
The panel holds about 83,000 compounds, 20% with a hit somewhere; the sample as a whole holds those more often.
Measure Name: growth (%)
One number for each entry, in %.

# Cpd Smiles, Measure Name, Endpoint Unit, Result Value
data = [
    ("CCCCC(=O)Nc1nc2ccc(SCCC)cc2s1", "growth", "%", 29.8),
    ("CC(C)CCC[C@@H](C)[C@H]1CC[C@H]2[C@@H]3CC=C4N(c5ccccc5)C(=O)CC[C@]4(C)[C@H]3CC[C@]12C", "growth", "%", 79.9),
    ("O=C(NC(=S)Nc1ccc(Cl)cc1)c1ccccc1", "growth", "%", 72.8),
    ("c1ccc(-c2nc3sc(C(c4ccccc4)c4ccccc4)nn3c2-c2ccccc2)cc1", "growth", "%", 107),
]

Shifting focus to the compound that follows.
**Query** Look up growth for this compound: O=C(Nc1ccc(-n2cc(-c3ccncc3)c(-c3ccc(O)c(Cl)c3)n2)cc1)c1ccc(Cl)c(C(F)(F)F)c1
**Result** 16.8

====

Test system: A498 renal
Assay: NCI-60 one-dose screen, 48 h
Settings: 10 µM unless noted
Compounds without any hit were thinned out: in the full panel of roughly 83,000, 20% have a hit. Calls of active or inactive are those of the source. Rule for the calls: active = growth percent below 10; inactive = the rest.
Pick from active, inactive when you respond.

Reference set, count: 5
# Compound, Target System, Answer Label
rows = [
    ("COc1ccc(/C=C/C(=O)c2ccc(NC(=O)CSc3nnc(-c4cc(OC)c(OC)c(OC)c4)o3)cc2)cc1", "A498 renal", "inactive"),
    ("CCCC(=O)Oc1ccc(/C(=C(\\C)c2ccc(OC)cc2)c2ccc(OCCN3CCCCC3)cc2)cc1", "A498 renal", "inactive"),
    ("O=S(c1ccccc1)c1ccc2nnnn2n1 (stereo not drawn)", "A498 renal", "inactive"),
    ("O=C1OC(c2ccc(-c3ccccc3)cc2)=C/C1=C/C=C/c1ccccc1", "A498 renal", "inactive"),
    ("O=C(O)c1ccc(-c2nn(-c3ccc(C(=O)O)cc3)cc2/C=N/Nc2c(F)c(F)cc(F)c2F)cc1", "A498 renal", "inactive"),
]

**Query** Hey, what did the test say about COc1ccc(-c2nn(-c3ccc(NC(=O)Nc4ccc(Cl)c(C(F)(F)F)c4)cc3)cc2-c2ccncc2)cc1Cl ?
**Result** active

**Query** Hey, what did the test say about Cc1ccc(-c2cc(-c3nnc(SCC(=O)c4ccccc4)o3)c3ccccc3n2)cc1 ?
**Result** inactive

**Query** Hey, what did the test say about CN(C)C(=O)Nc1nc2cc(Cl)c(Cl)cc2[nH]1 ?
**Result** inactive

====

What growth was measured for each of the following?
System: 786-0 renal
Assay: NCI-60 one-dose screen, 48 h (100 = growth as untreated, 0 = no growth, -100 = all killed)
Settings: 10 µM unless noted
Procedure: Cells are grown in 96 well plates and exposed to the test compound for 48 hours. Compounds are tested at a single concentration, which is 10^-5 M for most compounds. The reported endpoint is percent growth (GI% or GIPRCNT), where numbers from 0 - 100% represent growth inhibition, and numbers from -100% - 0 represent cell death. For example, a value of 40 represents 60% growth inhibition. A value of 0 means no net growth occurred over the course of the experiment. […]
This is part of a sample that, as a whole, favours compounds with a hit. Of some 83,000 tested, about 20% had one in any assay. Active and inactive are the calls of the source. The calls were made as follows: active = growth percent below 10; inactive = the rest.

Example entries begin here.
# Compound, Result Value
records = [
    ("COc1cc(-c2nc3sc(C)cn3c2/C=C2\\C(=O)Nc3ccccc32)c(Br)c(OC)c1OC", "22.9% (inactive)"),
    ("COc1ccc2c(c1)C(=O)/C(=C/c1cccc(OCC(=O)c3ccccc3)c1)O2", "104% (inactive)"),
    ("O=c1[nH]ccc2nc(N3CCC(O)CC3)nc(Nc3cccc(C(F)(F)F)c3)c12", "58.3% (inactive)"),
    ("COCCNC(C(=O)c1ccccc1)c1ccccc1 (stereo not given)", "92.5% (inactive)"),
    ("NCC(=O)NS(=O)(=O)OC[C@H]1O[C@@H](n2cnc3c(N)ncnc32)[C@H](O)[C@@H]1O", "-7.02% (active)"),
    ("C=CC(C)(O)CCC1C(=C)CCC2C(C)(C)CCCC12C (stereo not given)", "99.6% (inactive)"),
]

For each of the compounds below, note its growth.
1. CC1=C2C(=C[C@@](C)(CO)[C@@H]2OC(=O)N(C)CCN(C)C(=O)OC(C)(C)C)C(=O)[C@](C)(O)C12CC2
2. C#C[C@H](O)/C=C/CCCCCCC#C[C@H](O)CC[C@@H](O)C#CCCCCCC/C=C/[C@@H](O)C#C
3. CCC1CN2C(=N1)c1ccccc1-c1cc(Cl)ccc12 (stereo not given)
4. COc1ccccc1S(=O)(=O)Nc1ccc2c3c(cc(-c4cnn(C5CC5)c4)nc13)C(=O)N2C
5. COc1cc2c(cc1OCCCCC(=O)Nc1ccc(-c3nc4ccccc4s3)cc1)N=C[C@@H]1CCCN1C2=O
6. O=C1OC(N(Cc2ccc(Cl)cc2)c2ccccc2)c2ccccc21 (stereo not given)
7. O=C1C(SCCO)=C(SCCO)C(=O)N1c1ccc(-c2ccccc2)cc1
8. OCCOCC(F)(F)F

**Result**
1: 65.1% (inactive); 2: 64.6% (inactive); 3: -35.4% (active); 4: 68.2% (inactive); 5: -6.44% (active); 6: 91% (inactive); 7: 82.3% (inactive); 8: 113% (inactive)

For each of the compounds below, note its growth.
1. C=CCn1c(SCC(=O)Nc2ccc(C(=O)/C=C/c3cc(OC)c(OC)c(OC)c3)cc2)nnc1-c1ccc(OC)cc1
2. CC(=O)O[C@@H]1[C@@H](OC(C)=O)[C@H](OC(C)=O)CO[C@H]1Nc1cccc2ccccc12
3. CN(C)CCS(=O)(=O)Nc1cc(-c2ccc3ncnc(Nc4ccc(F)c(Cl)c4)c3c2)cnc1Cl
4. COC(=O)c1ccc(NC(N)=NCC(C)(C)COc2ccc(C(F)(F)F)cc2)nc1

**Result**
1: -30.8% (active); 2: 107% (inactive); 3: 12.8% (inactive); 4: 70.9% (inactive)

For each of the compounds below, note its growth.
1. COc1cc(/C=C/C(=O)c2c(C)n([O-])c3cc(C)c(C)cc3[n+]2=O)cc(OC)c1OC
2. O=C(NCCNc1nccc(-c2c(-c3cccc(O)c3)nc3sccn23)n1)c1ccccc1
3. NC(=NCCCOc1ccc(F)cc1)Nc1ccc(Cl)c(Cl)c1
4. C=C1C(=O)O[C@H]2[C@H]1CC/C(CNC(=O)/C1=C/CC[C@@]3(C)O[C@H]3[C@H]3OC(=O)C(=C)[C@@H]3CC1)=C\CC[C@@]1(C)O[C@@H]21
5. Cc1ccc(N(CC2=NCCN2)c2cccc(O)c2)cc1
6. Cc1cccc[n+]1CCC[n+]1ccccc1C
7. Cc1ccc(=O)n(-c2ccc(Br)cc2F)c1

**Result**
23.1% (inactive)
66.5% (inactive)
67.6% (inactive)
93.1% (inactive)
96.8% (inactive)
84.2% (inactive)
99.5% (inactive)
